# target under test: DPP4 (Homo sapiens, UniProt P27487)
# Sequence (P27487 whole entry): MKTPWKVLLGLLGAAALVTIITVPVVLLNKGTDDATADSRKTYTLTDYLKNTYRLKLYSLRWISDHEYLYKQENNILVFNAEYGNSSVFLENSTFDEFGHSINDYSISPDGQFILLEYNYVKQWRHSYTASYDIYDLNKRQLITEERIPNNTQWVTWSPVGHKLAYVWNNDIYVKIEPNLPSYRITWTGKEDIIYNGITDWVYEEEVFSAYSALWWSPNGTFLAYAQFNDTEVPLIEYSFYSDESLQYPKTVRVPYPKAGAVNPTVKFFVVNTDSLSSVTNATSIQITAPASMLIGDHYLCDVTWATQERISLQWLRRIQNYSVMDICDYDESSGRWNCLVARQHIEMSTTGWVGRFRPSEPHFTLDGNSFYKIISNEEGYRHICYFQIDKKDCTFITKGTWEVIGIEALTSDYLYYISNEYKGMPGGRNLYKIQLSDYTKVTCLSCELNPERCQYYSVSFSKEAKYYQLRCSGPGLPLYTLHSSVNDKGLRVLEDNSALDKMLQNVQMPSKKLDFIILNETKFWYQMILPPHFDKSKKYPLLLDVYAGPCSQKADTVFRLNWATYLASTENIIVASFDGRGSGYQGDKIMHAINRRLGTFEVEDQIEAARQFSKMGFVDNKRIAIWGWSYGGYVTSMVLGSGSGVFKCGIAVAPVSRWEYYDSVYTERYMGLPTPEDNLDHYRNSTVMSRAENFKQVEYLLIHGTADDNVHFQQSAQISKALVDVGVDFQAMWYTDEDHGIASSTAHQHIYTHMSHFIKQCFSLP
# assay overview: DPP4 activity assay (DPP4 inhibitor screening assay kit, Cayman);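 also: fluorescence read at excitation 360 nm and emission 460 nm after the enzyme reaction ran 30 min at 37 °C in a 96-well plate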
# Format: biochemical
# Set-up: purchased Cayman Chemical, Ann Arbor, MI, USA
# assay context: 0.5 h, 10 µM; control mean 100.0; Figure 1A raw data; read-out: DPP4 activity in library screen, Exp 2
measured quantity: remaining activity at 10 µM (%)
Entry rule: numbers only, all in %.

(Q) Can you look up the measured remaining activity at 10 µM of `CC1(C)[C@@H](O)CC[C@]2(C)[C@H]3C(=O)C=C4[C@@H]5C[C@@](C)(C(=O)O)CC[C@]5(C)CC[C@@]4(C)[C@]3(C)CC[C@@H]12` for me?
(A) 87

(Q) Next molecule up: `C[C@H]1CC[C@]2(NC1)O[C@H]1C[C@H]3[C@@H]4CC[C@H]5C[C@@H](O[C@@H]6O[C@H](CO)[C@H](O[C@@H]7O[C@H](CO)[C@@H](O)[C@H](O[C@@H]8OC[C@@H](O)[C@H](O)[C@H]8O)[C@H]7O[C@@H]7O[C@H](CO)[C@@H](O)[C@H](O)[C@H]7O)[C@H](O)[C@H]6O)CC[C@]5(C)[C@H]4CC[C@]3(C)[C@H]1[C@@H]2C`
(A) 91.8

(Q) // query: `C[C@H](CCC(=O)O)[C@H]1CC[C@H]2[C@@H]3C[C@H](O)[C@@H]4C[C@H](O)CC[C@]4(C)[C@H]3CC[C@]12C`
(A) 94.7

(Q) Now consider `C[C@@H]1O[C@@H](OC[C@H]2O[C@@H](Oc3c(-c4ccc(OCCO)c(OCCO)c4)oc4cc(OCCO)cc(O)c4c3=O)[C@H](O)[C@@H](O)[C@@H]2O)[C@H](O)[C@H](O)[C@H]1O` .
(A) 62.2

(Q) Now give it for `Cc1cc(O)c2c(c1)C(=O)c1cc(O)cc(O)c1C2=O` too.
(A) 22.6

(Q) // query: `COc1cc(O)c2c(c1)C(=O)c1cc(C)cc(O)c1C2=O`
(A) 52.2

(Q) For CNCC(O)c1ccc(O)cc1 (centres unmarked) [Synephrine] then?
(A) 76.9

(Q) Likewise for N[C@@H](Cc1c[nH]c2ccc(O)cc12)C(=O)O [5-hydroxytryptophan (5-HTP), 5-hydroxytryptophan] ?
(A) 82.6

(Q) // next record `C[C@@H]1CC[C@@]2(OC1)O[C@H]1C[C@H]3[C@@H]4CC=C5C[C@@H](O[C@@H]6O[C@H](CO)[C@@H](O[C@@H]7O[C@@H](C)[C@H](O)[C@@H](O)[C@H]7O)[C@H](O)[C@H]6O[C@@H]6O[C@@H](C)[C@H](O)[C@@H](O)[C@H]6O)CC[C@]5(C)[C@H]4CC[C@]3(C)[C@H]1[C@@H]2C`
(A) 100

(Q) What do you have for `COc1ccc(-c2coc3cc(O)ccc3c2=O)cc1` ?
(A) 85.5

(Q) Now consider `COc1ccc(-c2oc3c(CC=C(C)C)c(O[C@@H]4O[C@H](CO)[C@@H](O)[C@H](O)[C@H]4O)cc(O)c3c(=O)c2O[C@@H]2O[C@@H](C)[C@H](O)[C@@H](O)[C@H]2O)cc1` .
(A) 74.5

----------
# target under test: DPP4 (Homo sapiens)
# assay overview: DPP4 activity assay (DPP4 inhibitor screening assay kit, Cayman)
# Assay type: biochemical
# Parameters: purchased Cayman Chemical, Ann Arbor, MI, USA
# assay context: 10 µM; control mean 100.0; Figure 1A raw data
Decide by DPP4 activity in library screen, Exp 3: equal to or exceeding 80 means TRUE, less means FALSE.

(Q) Is it the case that `COc1ccc([C@@H]2CC(=O)c3c(O)cc(O[C@@H]4O[C@H](CO[C@@H]5O[C@@H](C)[C@H](O)[C@@H](O)[C@H]5O)[C@@H](O)[C@H](O)[C@H]4O)cc3O2)cc1O` has DPP4 activity in library screen, Exp 3 reaching or exceeding 80?
(A) TRUE

(Q) Same for `C=C1C[C@@]2(O)O[C@@]3(C[C@H]2C(C)C)[C@@H](C)CC[C@@H]13`
(A) TRUE

(Q) Query C[N+](C)(C)CC(O)CC(=O)O.[Cl-] (racemic) [DL-Carnitine HCl] next
(A) TRUE

(Q) What do you get for COC12c3c(C)cc(O)c4c(=O)occ(c34)C(=O)C1C13COC(=O)c4c(O)cc(C)c(c41)C(=O)C2C3OC(C)=O (centres unmarked) ?
(A) TRUE

(Q) Same question for `COc1cc2c(cc1O)C[C@@H]1NCCc3cc(OC)c(O)c-2c31` please.
(A) FALSE
